Assay Explanation: Plasma PK of zanubrutinib alone and with omeprazole 20 mg
Format: in vivo
Condition Context: male, human, oral, 20 mg
Endpoint Label: Cmax (ng/mL)
Respond numerically; units are ng/mL and should not be typed.

Req: Give the reported Cmax for this molecule. C=CC(=O)N1CCC([C@@H]2CCNc3c(C(N)=O)c(-c4ccc(Oc5ccccc5)cc4)nn32)CC1
Resp: 233

----------
Type: in vivo, human
Condition Context: male, human, plasma, oral, Cmax, probe drugs only; geometric mean (CV%)
Endpoint Label: Cmax (ng/mL)
Answer with a number only, understood to be in ng/mL.

Req: Query Cmax for CC(C)c1nc(N(C)S(C)(=O)=O)nc(-c2ccc(F)cc2)c1/C=C/[C@@H](O)C[C@@H](O)CC(=O)O [Rosuvastatin, rosuvastatin]
Resp: 3.47

Req: Name the recorded Cmax of the compound listed here: COc1ccc2[nH]c([S+]([O-])Cc3ncc(C)c(OC)c3C)nc2c1 (stereo not drawn) [Omeprazole, omeprazole]
Resp: 229

Req: Tell me Cmax reported for Cc1ncc2n1-c1ccc(Cl)cc1C(c1ccccc1F)=NC2 [Midazolam, midazolam]
Resp: 10.2

----------
Assay Explanation: Plasma PK of zanubrutinib alone and with omeprazole 20 mg
Type: in vivo
Condition Context: male, human, oral, 20 mg
Endpoint Label: half-life (h)
Number in h, nothing else.

Req: Provide half-life value for the following molecule: C=CC(=O)N1CCC([C@@H]2CCNc3c(C(N)=O)c(-c4ccc(Oc5ccccc5)cc4)nn32)CC1 [Zanubrutinib, zanubrutinib]
Resp: 2.93

----------
Assay type: in vivo, human
Condition Context: male, human, plasma, oral, t1/2, probe drugs + zanubrutinib 160 mg b.i.d.; arithmetic mean (SD)
Endpoint Label: half-life (h)
Respond numerically; units are h and should not be typed.

Req: Return half-life (reported value) for this molecule: CC(C)c1nc(N(C)S(C)(=O)=O)nc(-c2ccc(F)cc2)c1/C=C/[C@@H](O)C[C@@H](O)CC(=O)O
Resp: 11.2

----------
Format: in vivo, human
Condition Context: male, human, plasma, oral, 0.25 mg, AUC0‐t, probe drugs only; geometric mean (CV%)
Endpoint Label: AUC (ng·h/mL)
# value in ng·h/mL; strip the unit string

Req: Please indicate AUC recorded for C[C@H]1O[C@@H](O[C@H]2[C@@H](O)C[C@H](O[C@H]3[C@@H](O)C[C@H](O[C@H]4CC[C@@]5(C)[C@H](CC[C@@H]6[C@@H]5C[C@@H](O)[C@]5(C)[C@@H](C7=CC(=O)OC7)CC[C@]65O)C4)O[C@@H]3C)O[C@@H]2C)C[C@H](O)[C@@H]1O
Resp: 6.54

----------
Assay Explanation: Plasma PK of zanubrutinib alone and with omeprazole 20 mg
Type: in vivo
Condition Context: male, human, oral, 160 mg twice daily
Endpoint Label: half-life (h)
Please respond with the number in h and leave the unit unwritten.

Req: Indicate the recorded half-life value for this molecule: C=CC(=O)N1CCC([C@@H]2CCNc3c(C(N)=O)c(-c4ccc(Oc5ccccc5)cc4)nn32)CC1 [Zanubrutinib, zanubrutinib]
Resp: 2.7

The reported measurements were obtained from paper PMC8359458.
